All figures here come from patent US20110300138A1.

biological target: T1, human TSH receptor (full length), coated on tubes (human, UniProt P16473 22-764); assay: competition with 125I-K1-18 IgG on TSHR coated tubes; 1 µg/mL, diluted in assay buffer
T1 construct: TSHR coated tubes as described in WO2004/050708A2; Exact preparation on the tubes is not detailed here; also called thyroid stimulating hormone receptor
readout_kind: Inhibition of binding (%)
Response body: numeric value in %, unit text excluded.

Look over these answered cases.
[
  {
    "binder": "K1-18 IgG (antibody, V domains shown) VH: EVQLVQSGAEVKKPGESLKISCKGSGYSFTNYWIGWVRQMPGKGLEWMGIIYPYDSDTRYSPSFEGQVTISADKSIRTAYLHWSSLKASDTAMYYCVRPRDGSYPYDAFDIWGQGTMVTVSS VL: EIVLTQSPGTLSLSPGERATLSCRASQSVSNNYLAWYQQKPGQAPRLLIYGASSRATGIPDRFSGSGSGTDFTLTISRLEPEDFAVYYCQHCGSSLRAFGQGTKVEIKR",
    "readout_units": "%",
    "Inhibition of binding (%)": 92.8
  },
  {
    "binder": "K1-18 Fab (Fab, V domains shown) VH: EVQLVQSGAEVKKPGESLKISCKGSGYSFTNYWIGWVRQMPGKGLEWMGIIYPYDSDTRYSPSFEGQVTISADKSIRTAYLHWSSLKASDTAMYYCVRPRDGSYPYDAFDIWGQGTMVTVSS VL: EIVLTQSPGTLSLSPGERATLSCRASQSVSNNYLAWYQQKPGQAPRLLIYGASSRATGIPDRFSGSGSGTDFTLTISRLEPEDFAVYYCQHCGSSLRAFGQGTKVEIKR",
    "readout_units": "%",
    "Inhibition of binding (%)": 77.5
  },
  {
    "binder": "K1-70 IgG (antibody, V domains shown) VH: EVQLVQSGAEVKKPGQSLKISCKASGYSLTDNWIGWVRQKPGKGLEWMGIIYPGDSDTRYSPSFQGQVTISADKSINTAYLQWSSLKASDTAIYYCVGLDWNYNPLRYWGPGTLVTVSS VL: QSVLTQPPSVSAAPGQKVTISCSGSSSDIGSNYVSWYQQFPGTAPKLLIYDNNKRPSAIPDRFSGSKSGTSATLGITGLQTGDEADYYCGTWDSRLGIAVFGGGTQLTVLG",
    "readout_units": "%",
    "Inhibition of binding (%)": 92
  }
]

Consider now this further binder.
Find the measured Inhibition of binding (%) of K1-70 Fab (Fab, V domains shown) VH: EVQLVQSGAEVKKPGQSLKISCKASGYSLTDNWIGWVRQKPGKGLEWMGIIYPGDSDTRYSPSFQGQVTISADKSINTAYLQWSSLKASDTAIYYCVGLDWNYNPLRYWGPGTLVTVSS VL: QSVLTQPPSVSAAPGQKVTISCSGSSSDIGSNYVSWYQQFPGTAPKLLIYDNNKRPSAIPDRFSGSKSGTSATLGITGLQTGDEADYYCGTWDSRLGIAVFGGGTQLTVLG and report it.
91
